Every entry's value here was drawn from paper PMC9218960.

# Tested System: PfENT1 S317T (Plasmodium falciparum, UniProt Q8IDM6, S317T)
# Sequence (Q8IDM6 1-422 S317T): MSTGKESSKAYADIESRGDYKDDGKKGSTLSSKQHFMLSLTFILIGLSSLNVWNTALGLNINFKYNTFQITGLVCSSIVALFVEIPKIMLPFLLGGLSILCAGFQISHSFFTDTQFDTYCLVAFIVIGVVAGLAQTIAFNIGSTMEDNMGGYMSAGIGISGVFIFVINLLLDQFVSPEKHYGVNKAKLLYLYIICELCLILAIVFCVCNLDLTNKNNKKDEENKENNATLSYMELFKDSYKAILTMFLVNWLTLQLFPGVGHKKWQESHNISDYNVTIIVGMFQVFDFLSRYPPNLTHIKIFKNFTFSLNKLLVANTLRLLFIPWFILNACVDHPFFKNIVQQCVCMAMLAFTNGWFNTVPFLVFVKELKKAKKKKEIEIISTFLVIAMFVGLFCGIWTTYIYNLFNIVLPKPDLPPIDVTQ
# Measurement Protocol: [3H]uridine uptake inhibition by purines in PfENT1-SNP-expressing yeast
pIC50: −log10 of the molar value.

{"Smiles Str": "OC[C@H]1O[C@@H](n2cnc3c(O)ncnc32)[C@H](O)[C@@H]1O", "pIC50": 4.55}
{"Smiles Str": "O=c1[nH]cnc2nc[nH]c12", "pIC50": 3.76}
{"Smiles Str": "Nc1ncnc2nc[nH]c12", "pIC50": 3.69}

* * *

Quick list: pIC50 per entry.
# Tested System: PfENT1 A351S (Plasmodium falciparum, UniProt Q8IDM6, A351S)
# Measurement Protocol: [3H]uridine uptake inhibition by purines in PfENT1-SNP-expressing yeast
pIC50: −log10 of the molar value.

{"Compound": "Nc1ncnc2nc[nH]c12 [Adenine, adenine]", "pIC50": 2.91}
{"Compound": "O=c1[nH]cnc2nc[nH]c12 [Hypoxanthine, hypoxanthine]", "pIC50": 3.24}
{"Compound": "OC[C@H]1O[C@@H](n2cnc3c(O)ncnc32)[C@H](O)[C@@H]1O [Inosine, inosine]", "pIC50": 4.59}

* * *

# Tested System: PfENT1 V345I (Plasmodium falciparum, UniProt Q8IDM6, V345I)
# Measurement Protocol: [3H]uridine uptake inhibition by purines in PfENT1-SNP-expressing yeast
Quick list: IC50 per entry.

{"Smiles Str": "O=c1[nH]cnc2nc[nH]c12", "Result Unit": "µM", "IC50": 161}
{"Smiles Str": "Nc1ncnc2nc[nH]c12", "Result Unit": "µM", "IC50": 225}
{"Smiles Str": "OC[C@H]1O[C@@H](n2cnc3c(O)ncnc32)[C@H](O)[C@@H]1O", "Result Unit": "µM", "IC50": 4}

* * *

# Tested System: PfENT1 Q284E (Plasmodium falciparum, UniProt Q8IDM6, Q284E)
# Measurement Protocol: [3H]uridine uptake inhibition by purines in PfENT1-SNP-expressing yeast
Quick list: IC50 per entry.
Quantity: IC50 (µM)

{"Compound": "O=c1[nH]cnc2nc[nH]c12 [Hypoxanthine, hypoxanthine]", "Tested System": "PfENT1 Q284E (Plasmodium falciparum, UniProt Q8IDM6, Q284E)", "Quantity": "IC50", "Result Unit": "µM", "Recorded Number": 566}
{"Compound": "Nc1ncnc2nc[nH]c12 [Adenine, adenine]", "Tested System": "PfENT1 Q284E (Plasmodium falciparum, UniProt Q8IDM6, Q284E)", "Quantity": "IC50", "Result Unit": "µM", "Recorded Number": 1070}
{"Compound": "OC[C@H]1O[C@@H](n2cnc3c(O)ncnc32)[C@H](O)[C@@H]1O [Inosine, inosine]", "Tested System": "PfENT1 Q284E (Plasmodium falciparum, UniProt Q8IDM6, Q284E)", "Quantity": "IC50", "Result Unit": "µM", "Recorded Number": 18}

* * *

# Tested System: WT PfENT1 (Plasmodium falciparum, UniProt Q8IDM6)
# Measurement Protocol: [3H]uridine uptake inhibition by purines in PfENT1-expressing yeast
Quick list: IC50 per entry.

{"Smiles Str": "OC[C@H]1O[C@@H](n2cnc3c(O)ncnc32)[C@H](O)[C@@H]1O", "IC50, µM": 20}
{"Smiles Str": "O=c1[nH]cnc2nc[nH]c12", "IC50, µM": 178}
{"Smiles Str": "Nc1ncnc2nc[nH]c12", "IC50, µM": 475}

* * *

Quick list: pIC50 per entry.
# Tested System: PfENT1 L197F (Plasmodium falciparum, UniProt Q8IDM6, L197F)
# Measurement Protocol: [3H]uridine uptake inhibition by purines in PfENT1-SNP-expressing yeast
pIC50: −log10 of the molar value.

{"Smiles Str": "O=c1[nH]cnc2nc[nH]c12", "Tested System": "PfENT1 L197F (Plasmodium falciparum, UniProt Q8IDM6, L197F)", "pIC50": 3.55}
{"Smiles Str": "Nc1ncnc2nc[nH]c12", "Tested System": "PfENT1 L197F (Plasmodium falciparum, UniProt Q8IDM6, L197F)", "pIC50": 4.34}
{"Smiles Str": "OC[C@H]1O[C@@H](n2cnc3c(O)ncnc32)[C@H](O)[C@@H]1O", "Tested System": "PfENT1 L197F (Plasmodium falciparum, UniProt Q8IDM6, L197F)", "pIC50": 4.43}

* * *

# Tested System: PfENT1 F36S/V129I/L133F/P417L (Quad) (Plasmodium falciparum, UniProt Q8IDM6, F36S/L133F/P417L/V129I)
# Measurement Protocol: [3H]uridine uptake inhibition by purines in PfENT1-SNP-expressing yeast

{"Smiles Str": "O=c1[nH]cnc2nc[nH]c12", "IC50 [µM]": 108}
{"Smiles Str": "Nc1ncnc2nc[nH]c12", "IC50 [µM]": 362}
{"Smiles Str": "OC[C@H]1O[C@@H](n2cnc3c(O)ncnc32)[C@H](O)[C@@H]1O", "IC50 [µM]": 12}

* * *

# Tested System: PfENT1 V129I/L133F (Plasmodium falciparum, UniProt Q8IDM6, L133F/V129I)
# Sequence (Q8IDM6 1-422 V129I/L133F): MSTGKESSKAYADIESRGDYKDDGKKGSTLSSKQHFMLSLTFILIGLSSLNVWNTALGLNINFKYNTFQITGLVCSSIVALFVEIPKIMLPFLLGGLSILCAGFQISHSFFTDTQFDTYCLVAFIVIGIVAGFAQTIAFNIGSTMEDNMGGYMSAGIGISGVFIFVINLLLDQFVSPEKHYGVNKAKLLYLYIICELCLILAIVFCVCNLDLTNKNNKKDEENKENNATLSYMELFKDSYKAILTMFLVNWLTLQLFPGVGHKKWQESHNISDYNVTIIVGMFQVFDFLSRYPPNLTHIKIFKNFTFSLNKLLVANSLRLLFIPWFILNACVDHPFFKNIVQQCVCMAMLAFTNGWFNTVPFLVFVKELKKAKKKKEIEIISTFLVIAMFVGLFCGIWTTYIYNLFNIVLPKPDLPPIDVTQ
# Measurement Protocol: [3H]uridine uptake inhibition by purines in PfENT1-SNP-expressing yeast
Quick list: IC50 per entry.

{"Smiles Str": "OC[C@H]1O[C@@H](n2cnc3c(O)ncnc32)[C@H](O)[C@@H]1O", "IC50 (µM)": 20}
{"Smiles Str": "Nc1ncnc2nc[nH]c12", "IC50 (µM)": 930}
{"Smiles Str": "O=c1[nH]cnc2nc[nH]c12", "IC50 (µM)": 360}

* * *

Quick list: pIC50 per entry.
# Tested System: PfENT1 F394L (Plasmodium falciparum, UniProt Q8IDM6, F394L)
# Sequence (Q8IDM6 1-422 F394L): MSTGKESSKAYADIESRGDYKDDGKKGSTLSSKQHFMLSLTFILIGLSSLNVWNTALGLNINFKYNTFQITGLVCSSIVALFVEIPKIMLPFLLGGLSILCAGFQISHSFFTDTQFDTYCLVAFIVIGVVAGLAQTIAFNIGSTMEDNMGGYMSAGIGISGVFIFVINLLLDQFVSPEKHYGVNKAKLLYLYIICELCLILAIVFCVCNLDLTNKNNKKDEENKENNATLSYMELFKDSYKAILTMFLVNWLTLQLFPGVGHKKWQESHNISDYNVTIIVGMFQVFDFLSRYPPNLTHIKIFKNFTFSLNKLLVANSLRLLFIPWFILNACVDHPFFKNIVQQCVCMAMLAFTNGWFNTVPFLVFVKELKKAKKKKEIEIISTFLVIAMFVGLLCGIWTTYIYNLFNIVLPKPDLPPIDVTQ
# Measurement Protocol: [3H]uridine uptake inhibition by purines in PfENT1-SNP-expressing yeast
pIC50: −log10 of the molar value.

{"Smiles Str": "Nc1ncnc2nc[nH]c12", "pIC50": 2.82}
{"Smiles Str": "O=c1[nH]cnc2nc[nH]c12", "pIC50": 3.08}
{"Smiles Str": "OC[C@H]1O[C@@H](n2cnc3c(O)ncnc32)[C@H](O)[C@@H]1O", "pIC50": 4.03}
